target-or-test-system: GFLOMT6 (Glaucium flavum, UniProt A0A0H4IRD2)
test-name: Standard OMT assay, substrate specificity of recombinant GFLOMT6
Assay type: biochemical
details: substrate conversion in the standard OMT assay (percent)
Assign 1 to entries whose Substrate specificity, enzyme GFLOMT6 meets or exceeds 40; assign 0 to the rest.

1) COc1cc2c(cc1O)[C@@H]1Cc3ccc(OC)c(OC)c3CN1CC2 (racemic) [(R,S)-Tetrahydrocolubamine, Tetrahydrocolumbamine]; 1
2) COc1cc2c(cc1O)C(Cc1ccc(O)c(O)c1)N(C)CC2 (racemic) [(R,S)-6-O-Methyllaudanosoline, 6-O-Methyllaudanosoline]; 0
3) COc1ccc(C[C@H]2c3cc(O)c(OC)cc3CCN2C)cc1O [(S)-Reticuline, Reticuline]; 1
4) COc1ccc(C[C@@H]2NCCc3cc(OC)c(O)cc32)cc1O (racemic) [(R,S)-Norreticuline, Norreticuline]; 0
5) COc1cc2c(cc1O)C1Cc3ccc(OC)c(O)c3CN1CC2 (racemic) [(R,S)-Scoulerine, Scoulerine]; 1

Source of measurements: patent US10487345B2
